- protocol-notes: Kinetic solubility in pH 6.5 phosphate buffer incubated for 30 mins by nephelometry
- Format: physicochemical
- reported-conditions: read-out: Kinetic_solubility
measurement-name: solubility kinetic at 0.5 h

Lab book: solubility kinetic at 0.5 h of O=C(O)CCCCOc1ccc([C@H]2CC[C@]3(CC2)OOC2(O3)C3CC4CC(C3)CC2C4)cc1 (stereo partly drawn) noted as < 1.6 µg/mL

Lab book: solubility kinetic at 0.5 h of O=C(O)COc1ccc([C@H]2CC[C@]3(CC2)OOC2(O3)C3CC4CC2CC(C3)C4O)cc1 (stereo partly drawn) noted as < 1.6 µg/mL

Lab book: solubility kinetic at 0.5 h of CS(=O)(=O)O.NC1C2CC3CC1CC(C2)C31OO[C@]2(CC[C@@H](c3ccc(OCC(=O)O)cc3)CC2)O1 (stereo partly drawn) noted as 6.3 to 12.5 µg/mL

Lab book: solubility kinetic at 0.5 h of O=C(O)CCCOc1ccc([C@H]2CC[C@]3(CC2)OOC2(O3)C3CC4CC(C3)CC2C4)cc1 (stereo partly drawn) noted as < 3.1 µg/mL

Lab book: solubility kinetic at 0.5 h of CS(=O)(=O)NC(=O)COc1ccc([C@H]2CC[C@]3(CC2)OOC2(O3)C3CC4CC(C3)CC2C4)cc1 (stereo partly drawn) noted as < 1.6 µg/mL

Lab book: solubility kinetic at 0.5 h of O=C([O-])C1CCN(CCOc2ccc([C@H]3CC[C@]4(CC3)OOC3(O4)C4CC5CC(C4)CC3C5)cc2)CC1.[Na+] (stereo partly drawn) noted as 3.1 to 6.3 µg/mL

Lab book: solubility kinetic at 0.5 h of O=C(O)COc1ccc([C@H]2CC[C@]3(CC2)OOC2(O3)C3CC4CC(C3)CC2C4)cc1C(=O)O (stereo partly drawn) noted as < 3.1 µg/mL

Lab book: solubility kinetic at 0.5 h of CS(=O)(=O)O.O=C(O)C1CN(Cc2ccc([C@H]3CC[C@]4(CC3)OOC3(O4)C4CC5CC(C4)CC3C5)cc2)C1 (stereo partly drawn) noted as 6.3 to 12.5 µg/mL

Lab book: solubility kinetic at 0.5 h of O=C(O)c1cc([C@H]2CC[C@]3(CC2)OOC2(O3)C3CC4CC(C3)CC2C4)ccc1O (stereo partly drawn) noted as < 1.6 µg/mL

Lab book: solubility kinetic at 0.5 h of CC(=O)NC1C2CC3CC1CC(C2)C31OO[C@]2(CC[C@@H](c3ccc(OCC(=O)O)cc3)CC2)O1 (stereo partly drawn) noted as 3.1 to 6.3 µg/mL

Lab book: solubility kinetic at 0.5 h of CS(=O)(=O)O.O=C(O)CNCc1ccc([C@H]2CC[C@]3(CC2)OOC2(O3)C3CC4CC(C3)CC2C4)cc1 (stereo partly drawn) noted as < 12.5 µg/mL

Lab book: solubility kinetic at 0.5 h of O=C(O)COc1ccc([C@H]2CC[C@]3(CC2)OOC2(O3)C3CC4CC(C3)CC2C4)cc1Cl (stereo partly drawn) noted as < 3.1 µg/mL

Lab book: solubility kinetic at 0.5 h of CS(=O)(=O)O.O=C(O)COc1ccc([C@H]2CC[C@]3(CC2)OOC2(O3)C3CC4CC2CC(C3)N4)cc1 (stereo partly drawn) noted as 3.1 to 6.3 µg/mL

Lab book: solubility kinetic at 0.5 h of O=C(O)c1cccc([C@H]2CC[C@]3(CC2)OOC2(O3)C3CC4CC(C3)CC2C4)c1 (stereo partly drawn) noted as < 1.6 µg/mL

Lab book: solubility kinetic at 0.5 h of O=C(O)COc1ccc([C@H]2CC[C@]3(CC2)OOC2(O3)C3CC4CC2CC(C3)C4(F)F)cc1 (stereo partly drawn) noted as < 1.6 µg/mL

Lab book: solubility kinetic at 0.5 h of CCOC(=O)COc1ccc([C@H]2CC[C@]3(CC2)OOC2(O3)C3CC4CC(C3)CC2C4)cc1 (stereo partly drawn) noted as < 1.6 µg/mL

Lab book: solubility kinetic at 0.5 h of O=C(O)COc1ccc([C@H]2CC[C@]3(CC2)OOC2(O3)C3CC4CC2CC(C3)C4=O)cc1 (stereo partly drawn) noted as < 1.6 µg/mL

Lab book: solubility kinetic at 0.5 h of CS(=O)(=O)O.CS(=O)(=O)O.O=C(O)CNCc1ccc([C@H]2CC[C@]3(CC2)OOC2(O3)C3CC4CC2CC(C3)N4)cc1 (stereo partly drawn) noted as > 100 µg/mL

Lab book: solubility kinetic at 0.5 h of O=C(O)COc1ccc([C@H]2CC[C@]3(CC2)OOC2(O3)C3CC4CC(C3)CC2C4)cc1 (stereo partly drawn) noted as < 1.6 µg/mL

Lab book: solubility kinetic at 0.5 h of CC(C)(Oc1ccc([C@H]2CC[C@]3(CC2)OOC2(O3)C3CC4CC(C3)CC2C4)cc1)C(=O)O (stereo partly drawn) noted as < 1.6 µg/mL

Lab book: solubility kinetic at 0.5 h of O=C(O)CNC(=O)COc1ccc([C@H]2CC[C@]3(CC2)OOC2(O3)C3CC4CC(C3)CC2C4)cc1 (stereo partly drawn) noted as 12.5 to 25 µg/mL

Lab book: solubility kinetic at 0.5 h of O=C(O)c1ccc([C@H]2CC[C@]3(CC2)OOC2(O3)C3CC4CC(C3)CC2C4)cc1 (stereo partly drawn) noted as < 3.1 µg/mL

Lab book: solubility kinetic at 0.5 h of O=C(O)COc1c(Cl)cc([C@H]2CC[C@]3(CC2)OOC2(O3)C3CC4CC(C3)CC2C4)cc1Cl (stereo partly drawn) noted as < 3.1 µg/mL
